# Tested on: Rh18 complex spheroid viability, percent test/control
# PROTOCOL: Anticancer human tumor Rh18 cell line growth inhibition [Asc];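 note: spheroids exposed to compound for 7 days; 100% = DMSO vehicle control wells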
# EXPERIMENTAL PARAMETERS: second compound 0.316 µM; first compound 0.001 µM; hits give low values
Measured viability, T/C values are reported for all entries that follow.
REPORTED PROPERTY: viability, T/C (%)

[
  {
    "MOLECULE": "Cn1ncnc1[C@H]1c2n[nH]c(=O)c3cc(F)cc(c23)N[C@@H]1c1ccc(F)cc1 + CNC(C)C(=O)NC1CN(S(=O)(=O)c2cccc(S(=O)(=O)N3CCC4CCC(C(=O)NC(c5ccccc5)c5ccccc5)N4C(=O)C(NC(=O)C(C)NC)C3)c2)CCC2CCC(C(=O)NC(c3ccccc3)c3ccccc3)N2C1=O",
    "NUMERIC READOUT": 29.6
  },
  {
    "MOLECULE": "Cn1ncnc1[C@H]1c2n[nH]c(=O)c3cc(F)cc(c23)N[C@@H]1c1ccc(F)cc1 + Cc1c(S(C)(=O)=O)c(-c2cc(F)cc(N3CCN(c4ccc(NS(=O)(=O)c5ccc(NC(CCN6CCC(C(=O)OCCCP(=O)(O)O)CC6)CSc6ccccc6)c(S(=O)(=O)C(F)(F)F)c5)cc4)CC3)c2)c(-c2ccc(Cl)cc2)n1C(C)C",
    "NUMERIC READOUT": 11.7
  },
  {
    "MOLECULE": "NC1CCC(NC2CC2c2ccccc2)CC1 (centres undefined) + CNC(C)C(=O)NC1CN(S(=O)(=O)c2cccc(S(=O)(=O)N3CCC4CCC(C(=O)NC(c5ccccc5)c5ccccc5)N4C(=O)C(NC(=O)C(C)NC)C3)c2)CCC2CCC(C(=O)NC(c3ccccc3)c3ccccc3)N2C1=O",
    "NUMERIC READOUT": 54
  },
  {
    "MOLECULE": "NC1CCC(NC2CC2c2ccccc2)CC1 (centres undefined) + Cc1c(S(C)(=O)=O)c(-c2cc(F)cc(N3CCN(c4ccc(NS(=O)(=O)c5ccc(NC(CCN6CCC(C(=O)OCCCP(=O)(O)O)CC6)CSc6ccccc6)c(S(=O)(=O)C(F)(F)F)c5)cc4)CC3)c2)c(-c2ccc(Cl)cc2)n1C(C)C",
    "NUMERIC READOUT": 9.84
  }
]

====

# Test system: Rh18 complex spheroid viability, percent test/control
# PROTOCOL: Anticancer human tumor Rh18 cell line growth inhibition [Asc];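 note: spheroids exposed to compound for 7 days; 100% = DMSO vehicle control wells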
# EXPERIMENTAL PARAMETERS: second compound 0.0316 µM; first compound 0.0316 µM; hits give low values

[
  {
    "COMPOUND": "O=C(c1ccc(F)c(F)c1Nc1ccc(I)cc1F)N1CC(O)([C@@H]2CCCCN2)C1 + CNC(C)C(=O)NC1CN(S(=O)(=O)c2cccc(S(=O)(=O)N3CCC4CCC(C(=O)NC(c5ccccc5)c5ccccc5)N4C(=O)C(NC(=O)C(C)NC)C3)c2)CCC2CCC(C(=O)NC(c3ccccc3)c3ccccc3)N2C1=O",
    "viability, T/C, %": 43.6
  },
  {
    "COMPOUND": "CCN1CCN(Cc2ccc(Nc3ncc(F)c(-c4cc(F)c5nc(C)n(C(C)C)c5c4)n3)nc2)CC1 + CNC(C)C(=O)NC1CN(S(=O)(=O)c2cccc(S(=O)(=O)N3CCC4CCC(C(=O)NC(c5ccccc5)c5ccccc5)N4C(=O)C(NC(=O)C(C)NC)C3)c2)CCC2CCC(C(=O)NC(c3ccccc3)c3ccccc3)N2C1=O",
    "viability, T/C, %": 39.6
  },
  {
    "COMPOUND": "C#Cc1c(F)ccc2cc(O)cc(-c3ncc4c(N5CC6CCC(C5)N6)nc(OCC56CCCN5CC(F)C6)nc4c3F)c12 (stereo not given) + CNC(C)C(=O)NC1CN(S(=O)(=O)c2cccc(S(=O)(=O)N3CCC4CCC(C(=O)NC(c5ccccc5)c5ccccc5)N4C(=O)C(NC(=O)C(C)NC)C3)c2)CCC2CCC(C(=O)NC(c3ccccc3)c3ccccc3)N2C1=O",
    "viability, T/C, %": 63.2
  },
  {
    "COMPOUND": "O=C(c1cc(Cc2n[nH]c(=O)c3ccccc23)ccc1F)N1CCN(C(=O)C2CC2)CC1 + CNC(C)C(=O)NC1CN(S(=O)(=O)c2cccc(S(=O)(=O)N3CCC4CCC(C(=O)NC(c5ccccc5)c5ccccc5)N4C(=O)C(NC(=O)C(C)NC)C3)c2)CCC2CCC(C(=O)NC(c3ccccc3)c3ccccc3)N2C1=O",
    "viability, T/C, %": 45.8
  },
  {
    "COMPOUND": "C=C(F)C(=O)N1CCN(c2nc(OCC3CCCN3C)nc3c2CCN(c2cccc4cccc(Cl)c24)C3)CC1CC#N (stereo not given) + CNC(C)C(=O)NC1CN(S(=O)(=O)c2cccc(S(=O)(=O)N3CCC4CCC(C(=O)NC(c5ccccc5)c5ccccc5)N4C(=O)C(NC(=O)C(C)NC)C3)c2)CCC2CCC(C(=O)NC(c3ccccc3)c3ccccc3)N2C1=O",
    "viability, T/C, %": 46.5
  }
]

====

# System: Rh18 complex spheroid viability, percent test/control
# PROTOCOL: Anticancer human tumor Rh18 cell line growth inhibition [Asc];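 note: spheroids exposed to compound for 7 days; 100% = DMSO vehicle control wells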
# EXPERIMENTAL PARAMETERS: second compound 1 µM; first compound 0.316 µM; hits give low values
REPORTED PROPERTY: viability, T/C (%)

[
  {
    "COMPOUND": "C=C(F)C(=O)N1CCN(c2nc(OCC3CCCN3C)nc3c2CCN(c2cccc4cccc(Cl)c24)C3)CC1CC#N (stereo not given) + Cc1c(S(C)(=O)=O)c(-c2cc(F)cc(N3CCN(c4ccc(NS(=O)(=O)c5ccc(NC(CCN6CCC(C(=O)OCCCP(=O)(O)O)CC6)CSc6ccccc6)c(S(=O)(=O)C(F)(F)F)c5)cc4)CC3)c2)c(-c2ccc(Cl)cc2)n1C(C)C",
    "NUMERIC READOUT": 10.9
  },
  {
    "COMPOUND": "CCN1CCN(Cc2ccc(Nc3ncc(F)c(-c4cc(F)c5nc(C)n(C(C)C)c5c4)n3)nc2)CC1 + CNC(C)C(=O)NC1CN(S(=O)(=O)c2cccc(S(=O)(=O)N3CCC4CCC(C(=O)NC(c5ccccc5)c5ccccc5)N4C(=O)C(NC(=O)C(C)NC)C3)c2)CCC2CCC(C(=O)NC(c3ccccc3)c3ccccc3)N2C1=O",
    "NUMERIC READOUT": 38.7
  },
  {
    "COMPOUND": "O=C(c1ccc(F)c(F)c1Nc1ccc(I)cc1F)N1CC(O)([C@@H]2CCCCN2)C1 + CNC(C)C(=O)NC1CN(S(=O)(=O)c2cccc(S(=O)(=O)N3CCC4CCC(C(=O)NC(c5ccccc5)c5ccccc5)N4C(=O)C(NC(=O)C(C)NC)C3)c2)CCC2CCC(C(=O)NC(c3ccccc3)c3ccccc3)N2C1=O",
    "NUMERIC READOUT": 28.9
  },
  {
    "COMPOUND": "C=CC(=O)N1CCN(c2nc(=O)n(-c3c(C)ccnc3C(C)C)c3nc(-c4c(O)cccc4F)c(F)cc23)C(C)C1 (stereo not given) + CNC(C)C(=O)NC1CN(S(=O)(=O)c2cccc(S(=O)(=O)N3CCC4CCC(C(=O)NC(c5ccccc5)c5ccccc5)N4C(=O)C(NC(=O)C(C)NC)C3)c2)CCC2CCC(C(=O)NC(c3ccccc3)c3ccccc3)N2C1=O",
    "NUMERIC READOUT": 46.4
  },
  {
    "COMPOUND": "C#Cc1c(F)ccc2cc(O)cc(-c3ncc4c(N5CC6CCC(C5)N6)nc(OCC56CCCN5CC(F)C6)nc4c3F)c12 (stereo not given) + Cc1c(S(C)(=O)=O)c(-c2cc(F)cc(N3CCN(c4ccc(NS(=O)(=O)c5ccc(NC(CCN6CCC(C(=O)OCCCP(=O)(O)O)CC6)CSc6ccccc6)c(S(=O)(=O)C(F)(F)F)c5)cc4)CC3)c2)c(-c2ccc(Cl)cc2)n1C(C)C",
    "NUMERIC READOUT": 8.18
  }
]

====

# Test system: Rh18 complex spheroid viability, percent test/control
# PROTOCOL: Anticancer human tumor Rh18 cell line growth inhibition [Asc];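 note: spheroids exposed to compound for 7 days; 100% = DMSO vehicle control wells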
# EXPERIMENTAL PARAMETERS: second compound 3 µM; first compound 1 µM; hits give low values
// classify: if (viability, T/C < 10%) class 1 else class 0

[
  {
    "MOLECULE": "O=C(c1cc(Cc2n[nH]c(=O)c3ccccc23)ccc1F)N1CCN(C(=O)C2CC2)CC1 + CCN1C(C(=O)NC23CCC(C(=O)O)(CC2)CC3)C(c2cccc(Cl)c2F)C2(C(=O)Nc3cc(Cl)ccc32)C12CCCCC2",
    "LABEL": "class 0"
  },
  {
    "MOLECULE": "C#Cc1c(F)ccc2cc(O)cc(-c3ncc4c(N5CC6CCC(C5)N6)nc(OCC56CCCN5CC(F)C6)nc4c3F)c12 (stereo not given) + CCN1C(C(=O)NC23CCC(C(=O)O)(CC2)CC3)C(c2cccc(Cl)c2F)C2(C(=O)Nc3cc(Cl)ccc32)C12CCCCC2",
    "LABEL": "class 0"
  },
  {
    "MOLECULE": "COc1c(OCCCN2CCOCC2)ccc2c3n(c(=NC(=O)c4cnc(N)nc4)nc12)CCN3 + CCN1C(C(=O)NC23CCC(C(=O)O)(CC2)CC3)C(c2cccc(Cl)c2F)C2(C(=O)Nc3cc(Cl)ccc32)C12CCCCC2",
    "LABEL": "class 1"
  },
  {
    "MOLECULE": "CNC(C)C(=O)NC1CN(S(=O)(=O)c2cccc(S(=O)(=O)N3CCC4CCC(C(=O)NC(c5ccccc5)c5ccccc5)N4C(=O)C(NC(=O)C(C)NC)C3)c2)CCC2CCC(C(=O)NC(c3ccccc3)c3ccccc3)N2C1=O (stereo not given) + CCN1C(C(=O)NC23CCC(C(=O)O)(CC2)CC3)C(c2cccc(Cl)c2F)C2(C(=O)Nc3cc(Cl)ccc32)C12CCCCC2",
    "LABEL": "class 0"
  },
  {
    "MOLECULE": "C=CC(=O)N1CCN(c2nc(=O)n(-c3c(C)ccnc3C(C)C)c3nc(-c4c(O)cccc4F)c(F)cc23)C(C)C1 (stereo not given) + CCN1C(C(=O)NC23CCC(C(=O)O)(CC2)CC3)C(c2cccc(Cl)c2F)C2(C(=O)Nc3cc(Cl)ccc32)C12CCCCC2",
    "LABEL": "class 0"
  }
]
